ASSAYED_SYSTEM: human serum albumin (human) (UniProt P02768)
Sequence (P02768 25-609 limits assumed): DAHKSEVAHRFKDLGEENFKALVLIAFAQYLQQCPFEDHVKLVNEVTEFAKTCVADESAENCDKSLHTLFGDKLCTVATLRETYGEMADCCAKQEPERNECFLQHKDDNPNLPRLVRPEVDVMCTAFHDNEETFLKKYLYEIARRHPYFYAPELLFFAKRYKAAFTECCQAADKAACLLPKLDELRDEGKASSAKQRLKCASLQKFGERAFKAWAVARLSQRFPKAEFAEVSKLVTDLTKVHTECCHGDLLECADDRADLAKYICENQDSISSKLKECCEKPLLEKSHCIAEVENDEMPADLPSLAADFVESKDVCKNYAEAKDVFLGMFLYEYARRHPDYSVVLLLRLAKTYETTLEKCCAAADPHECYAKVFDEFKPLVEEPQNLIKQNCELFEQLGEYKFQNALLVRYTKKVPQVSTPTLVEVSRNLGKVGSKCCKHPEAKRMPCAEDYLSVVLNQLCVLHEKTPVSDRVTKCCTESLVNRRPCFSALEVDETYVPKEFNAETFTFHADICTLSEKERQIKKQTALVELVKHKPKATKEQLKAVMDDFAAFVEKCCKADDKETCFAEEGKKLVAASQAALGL
ASSAY: primary solution ELISA screen
ENDPOINT: RLU (RLU)

>  <BINDER>
SEQ ID NO 89 (designed binder, not shown: small tags and cut ends) MLPAPENLVVSRVTEDSARLSWTAPDAAFDSFWIEYYEGVIQGEAIVLTVPGSERSYDLTGLKPGTEYFVAIWGVKGGKWSVPLSAIFTT

>  <ENDPOINT>
RLU

>  <EXPERIMENTAL_RESULT>
6500

$$$$
>  <BINDER>
SEQ ID NO 84 (designed binder, not shown: small tags and cut ends) MLPAPKNLVVSRVTEDSARLSWQGVARAFDSFSILYLELTPKGEAIVLTVPGSERSYDLTGLKPGTEYPVWIQGVKGGSPSAPLSAEFTT

>  <ENDPOINT>
RLU

>  <EXPERIMENTAL_RESULT>
127000

$$$$
>  <BINDER>
SEQ ID NO 35 (designed binder, not shown: small tags and cut ends) MLPAPKNLVVSRVTEDSARLSWTAPDAAFDSFPISYIESIADGEAIVLTVPGSERSYDLTGLKPGTEYWVAIVGVKGGPFSWSLSAIVTT

>  <ENDPOINT>
RLU

>  <EXPERIMENTAL_RESULT>
18800

$$$$
>  <BINDER>
SEQ ID NO 77 (designed binder, not shown: small tags and cut ends) MLPAPKNLVVSRVTEDSARLSWTAPDAAFDSFPIAYAEPRPDGEAIVLTVPGSERSYDLTGLKPGTEYSVLIHGVKGGLLSSPLSAIFTT

>  <ENDPOINT>
RLU

>  <EXPERIMENTAL_RESULT>
10400

$$$$
>  <BINDER>
SEQ ID NO 30 (designed binder, not shown: small tags and cut ends) MLPAPKNLVVSRVTEDSARLSWTAPDAAFDSFIIHYVEQQLIGEAIVLTVPGSERSYDLTGLKPGTEYPVPITGVKGGACSWPLSAIFTT

>  <ENDPOINT>
RLU

>  <EXPERIMENTAL_RESULT>
4450

$$$$
>  <BINDER>
SEQ ID NO 62 (designed binder, not shown: small tags and cut ends) MLPAPKNLVVSRVTEDSARLSWTAPDAAFDSFKIRYTETRSIGEAIVLTVPGSERSYDLTGLKPGTEYCVPIGGVKGGDSSWPLSAISTT

>  <ENDPOINT>
RLU

>  <EXPERIMENTAL_RESULT>
8100

$$$$
>  <BINDER>
SEQ ID NO 100 (designed binder, not shown: small tags and cut ends) MLPAPKNLVVSRVTEDSARLSWTAPDAAFDSFYIWYEEVMYLGEAIVLTVPGSERSYDLTGLKPGTEYNVPIPGVKGGHSSPPLSAIFTT

>  <ENDPOINT>
RLU

>  <EXPERIMENTAL_RESULT>
5150

$$$$
>  <BINDER>
SEQ ID NO 99 (designed binder, not shown: small tags and cut ends) MLPAPKNLVVSRVTEDSARLSWTAPDAAFDSFFIPYAEPSPTGEAIVLTVPGSERSYDLTGLKPGTEYSVLIHGVKGGHLSDPLSVIFTT

>  <ENDPOINT>
RLU

>  <EXPERIMENTAL_RESULT>
9850

$$$$

A = SEQ ID NO 40 (designed binder, not shown: small tags and cut ends) MLPAPKNLVVSRVTEDSARLSWTAPDAAFDSFTIDYWENRCPGEAIVLTVPGSERSYDLTGLKPGTEYCVWISGVKGGYSSWPLSAIFTT
B = SEQ ID NO 7 (designed binder, not shown: small tags and cut ends) MLPAPKNLVVSDVTEDSARLSWQGVARAFDSFLITYREQIFAGEVIVLTVPGSERSYDLTGLKPGTEYPVWIQGVKGGSPSAPLSAEFTT
C = SEQ ID NO 68 (designed binder, not shown: small tags and cut ends) MLPAPKNLVVSRVTEDSARLSWTAPDAAFDSFIIPYAEVRPDGEAIVLTVPGSERSYDLTGLKPGTEYSVLIHGVKGGHLSDPLSAISTT
D = SEQ ID NO 33 (designed binder, not shown: small tags and cut ends) MLPAPKNLVVSRVTEDSARLSWTAPDAAFDSFGIAYVESYWYGEAIVLTVPGSERSYDLTGLKPGTEYNVPIYGVKGGDGSGPLSAIFTT
E = SEQ ID NO 4 (designed binder, not shown: small tags and cut ends) MLPAPKNLVVSEVTEDSARLSWQGVARAFDSFLITYRDQIFAGEVIVLTVPGSERSYDLTGLKPGTEYPVWIQGVKGGSPSAPLSAESTT
Order the items by recorded RLU; the first position goes to the largest value. Could you list the labels in the order requested? E, C, B, A, D
(E: 174000 RLU, C: 38400 RLU, B: 26100 RLU, A: 13600 RLU, D: 2050 RLU)

a = SEQ ID NO 19 (designed binder, not shown: small tags and cut ends) MLPAPKNLVVSRVTEDSARLSWTAPDAAFDSFAITYTEAALCGEAIVLTVPGSERSYDLTGLKPGTEYPVPINGVKGGGTSGPLSAIFTT
b = SEQ ID NO 6 (designed binder, not shown: small tags and cut ends) MLPAPKNLVVSRVTEDSARLSWTAPDAAFDSFPIIYMETFSRGEAIVLTVPGSERSYDLTGLKPGTEYRVPIGGVKGGSSSCPLSAIFTT
Sorting ascending by RLU, which comes first: a or b ? Bench note: the answer is the label of the chosen record. b
(b: 7300 RLU, a: 17900 RLU)

a = SEQ ID NO 88 (designed binder, not shown: small tags and cut ends) MLPAPKNLVVSRVTEDSARLSWTAPDAAFDSFPIKYREVLRCGEAIVLTVPGSERSYDLTGLKPGTEYTVPITGVKGGFGSSPLSAIFTT
b = SEQ ID NO 1 (designed binder, not shown: small tags and cut ends) MLPAPKNLVVSRVTEDSARLSWTAPDAAFDSFPITYIEAVVLGEAIVLTVPGSERSYDLTGLKPGTEYPVGISGVKGGHNSMPLSAIFTT
Sorting ascending by RLU, which comes first: a or b ? Bench note: the answer is the label of the chosen record. b

Each recorded value in this set is attributed to patent US20220332795A1.
